# Test system: Rattus norvegicus
# EXPERIMENTAL_DETAILS: Antiinflammatory activity in rat assessed as inhibition of carrageenan-induced paw oedema at 10 mg/kg, po after 2 hrs
# Assay type: functional
# Set-up: scale not given: the % may be the effect or the level left
Rule: Activity under 40% gives FALSE, otherwise TRUE.

Task: Could you tell me if the measured Activity of Nc1ncnc2nc3[nH]c(=S)[nH]c(=O)c3c(-c3ccc(N4CCOCC4)cc3)c12 reaches 40% or more?
Result: TRUE

Task: Exam item: decide whether the reported Activity for N=c1sc(=S)[nH]c2nc3[nH]c(=S)[nH]c(=O)c3c(-c3ccc(N4CCOCC4)cc3)c12 is at least 40%.
Result: FALSE

Task: Threshold query (Activity >= 40%) on O=c1[nH]cnc2nc3[nH]c(=S)[nH]c(=O)c3c(-c3ccc(N4CCCCC4)cc3)c12
Result: FALSE
